Values were extracted from ChEMBL document CHEMBL1153351.

# Target: CYP2C9 (Homo sapiens)
# Sequence (P11712 whole entry): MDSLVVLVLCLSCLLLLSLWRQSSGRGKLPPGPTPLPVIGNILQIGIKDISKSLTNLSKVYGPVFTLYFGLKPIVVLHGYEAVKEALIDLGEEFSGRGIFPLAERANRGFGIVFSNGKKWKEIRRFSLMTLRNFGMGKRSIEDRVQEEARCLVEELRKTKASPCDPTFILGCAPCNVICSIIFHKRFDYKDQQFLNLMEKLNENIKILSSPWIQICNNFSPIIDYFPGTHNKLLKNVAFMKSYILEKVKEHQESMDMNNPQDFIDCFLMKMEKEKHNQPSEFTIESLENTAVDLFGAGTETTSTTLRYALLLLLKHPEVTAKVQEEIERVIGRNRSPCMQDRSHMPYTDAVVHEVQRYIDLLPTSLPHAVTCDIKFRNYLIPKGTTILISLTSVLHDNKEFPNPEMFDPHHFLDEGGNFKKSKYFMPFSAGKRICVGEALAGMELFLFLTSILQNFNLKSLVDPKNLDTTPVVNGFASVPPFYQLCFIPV
# Assay info: Inhibition of CYP2C9 at 3 uM
# Assay type: ADME
Property measured: inhibition at 3 µM

Mol smiles | Target | Property measured | Result
O=S(=O)(c1ccc2c(c1)CCNCC2)N1CCC(Oc2ccccc2Cl)CC1 | CYP2C9 (Homo sapiens) | inhibition at 3 µM | < 50%

----------
# Target: 5-hydroxytryptamine receptor 2B (Homo sapiens, UniProt P41595)
# Sequence (P41595 whole entry): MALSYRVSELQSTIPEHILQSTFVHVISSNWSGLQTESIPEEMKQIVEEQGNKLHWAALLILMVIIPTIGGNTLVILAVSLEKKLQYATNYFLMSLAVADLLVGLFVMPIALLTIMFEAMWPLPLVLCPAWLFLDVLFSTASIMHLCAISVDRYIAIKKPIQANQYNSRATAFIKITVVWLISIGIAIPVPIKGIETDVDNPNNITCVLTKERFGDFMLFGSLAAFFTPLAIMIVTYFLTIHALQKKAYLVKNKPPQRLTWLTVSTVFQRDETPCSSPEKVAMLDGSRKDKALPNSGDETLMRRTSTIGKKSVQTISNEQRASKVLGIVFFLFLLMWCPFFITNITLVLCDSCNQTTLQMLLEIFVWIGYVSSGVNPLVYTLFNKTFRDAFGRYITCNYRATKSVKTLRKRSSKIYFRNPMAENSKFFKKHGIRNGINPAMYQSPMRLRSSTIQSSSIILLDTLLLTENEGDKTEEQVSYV
# Assay info: Agonist activity at human recombinant 5HT2B receptor by cell-based system

Mol smiles | EC50
O=S(=O)(c1ccc2c(c1)CCNCC2)N1CC(Oc2ccc(Cl)cc2)C1 | > 9.94 µM
O=S(=O)(c1ccc2c(c1)CCNCC2)N1CCCC1 | 0.357 µM
O=S(=O)(c1ccc2c(c1)CCNCC2)N1CCC(Oc2ccccc2Cl)CC1 | > 9.94 µM
O=S(=O)(NCc1ccccc1Cl)c1ccc2c(c1)CCNCC2 | 0.802 µM
CN(c1ccccc1)S(=O)(=O)c1ccc2c(c1)CCNCC2 | 0.478 µM
O=S(=O)(c1ccc2c(c1)CCNCC2)N1CCC(Oc2ccccc2)CC1 | > 9.94 µM
O=S(=O)(c1ccc2c(c1)CCNCC2)N1CCC(Oc2ccccc2F)CC1 | > 9.94 µM
O=S(=O)(c1ccc2c(c1)CCNCC2)N1CC(Oc2cccc(Cl)c2)C1 | > 9.94 µM
O=S(=O)(c1ccc2c(c1)CCNCC2)N1CC[C@@H](Oc2ccccc2Cl)C1 | > 9.94 µM
COc1cc(S(=O)(=O)N(C)Cc2ccccc2)c(OC)c2c1CCNCC2 | > 9.94 µM
O=S(=O)(c1ccc2c(c1)CCNCC2)N1CC[C@H](Oc2ccccc2Cl)C1 | > 9.94 µM

----------
Quick reference: Emax of the listed items.
# Target: 5-hydroxytryptamine receptor 2B (Homo sapiens, UniProt P41595)
# Assay info: Agonist activity at human recombinant 5HT2B receptor by cell-based system
# Assay type: functional

Mol smiles | Emax / %
O=S(=O)(c1ccc2c(c1)CCNCC2)c1ccccc1F | 66
O=S(=O)(Nc1ccccc1)c1ccc2c(c1)CCNCC2 | 50
O=S(=O)(c1cccc(F)c1)c1ccc2c(c1)CCNCC2 | 67
O=S(=O)(c1ccc2c(c1)CCNCC2)N1CCCC1 | 68
O=S(=O)(c1ccc2c(c1)CCNCC2)N1CCCCC1 | 89
CN(c1ccccc1)S(=O)(=O)c1ccc2c(c1)CCNCC2 | 46
O=S(=O)(NCC1CC1)c1ccc2c(c1)CCNCC2 | 47
O=S(=O)(Nc1ccccc1Cl)c1ccc2c(c1)CCNCC2 | 16
CCCNS(=O)(=O)c1ccc2c(c1)CCNCC2 | 30
O=S(=O)(Nc1ccccc1F)c1ccc2c(c1)CCNCC2 | 41
O=S(=O)(c1ccccc1)c1ccc2c(c1)CCNCC2 | 61
O=S(=O)(c1ccc(F)cc1)c1ccc2c(c1)CCNCC2 | 60
CN(C)S(=O)(=O)c1ccc2c(c1)CCNCC2 | 57
CN(CC1CC1)S(=O)(=O)c1ccc2c(c1)CCNCC2 | 50
O=S(=O)(NCc1ccccc1Cl)c1ccc2c(c1)CCNCC2 | 19

----------
# Target: 5-hydroxytryptamine receptor 2C (Homo sapiens, UniProt P28335)
# Assay info: Displacement of [3H]mesulergine form human recombinant 5HT2C receptor expressed in mouse Swiss 3T3 cells by scintillation proximity assay
# note: exactly 60 nM is not below, so it is criterion not met; use criterion met for Ki strictly under it

Compound | Class
O=S(=O)(Nc1ccccc1)c1ccc2c(c1)CCNCC2 | criterion not met
CCCNS(=O)(=O)c1ccc2c(c1)CCNCC2 | criterion not met
O=S(=O)(NCC1CC1)c1ccc2c(c1)CCNCC2 | criterion not met
CN(C)S(=O)(=O)c1ccc2c(c1)CCNCC2 | criterion not met
O=S(=O)(c1ccc2c(c1)CCNCC2)N1CCC(Oc2ccccc2F)CC1 | criterion met
O=S(=O)(c1ccccc1)c1ccc2c(c1)CCNCC2 | criterion met
O=S(=O)(c1ccc2c(c1)CCNCC2)N1CCOCC1 | criterion not met
O=S(=O)(c1ccc2c(c1)CCNCC2)N1CCCC1 | criterion met
O=S(=O)(c1ccc2c(c1)CCNCC2)N1CCC(Oc2ccccc2Cl)CC1 | criterion met
CN(CC1COc2ccccc21)S(=O)(=O)c1ccc2c(c1)CCNCC2 (configuration not stated) | criterion met
O=S(=O)(Nc1ccccc1F)c1ccc2c(c1)CCNCC2 | criterion not met
O=S(=O)(NCc1ccccc1Cl)c1ccc2c(c1)CCNCC2 | criterion met
CN(CC1CC1)S(=O)(=O)c1ccc2c(c1)CCNCC2 | criterion met
O=S(=O)(c1ccc2c(c1)CCNCC2)N1CCCCC1 | criterion met
CN(c1ccccc1)S(=O)(=O)c1ccc2c(c1)CCNCC2 | criterion not met
CN(Cc1ccccc1)S(=O)(=O)c1ccc2c(c1)CCNCC2 | criterion met
O=S(=O)(Nc1ccccc1Cl)c1ccc2c(c1)CCNCC2 | criterion not met

----------
# Target: CYP3A4 (Homo sapiens)
# Sequence (P08684 whole entry): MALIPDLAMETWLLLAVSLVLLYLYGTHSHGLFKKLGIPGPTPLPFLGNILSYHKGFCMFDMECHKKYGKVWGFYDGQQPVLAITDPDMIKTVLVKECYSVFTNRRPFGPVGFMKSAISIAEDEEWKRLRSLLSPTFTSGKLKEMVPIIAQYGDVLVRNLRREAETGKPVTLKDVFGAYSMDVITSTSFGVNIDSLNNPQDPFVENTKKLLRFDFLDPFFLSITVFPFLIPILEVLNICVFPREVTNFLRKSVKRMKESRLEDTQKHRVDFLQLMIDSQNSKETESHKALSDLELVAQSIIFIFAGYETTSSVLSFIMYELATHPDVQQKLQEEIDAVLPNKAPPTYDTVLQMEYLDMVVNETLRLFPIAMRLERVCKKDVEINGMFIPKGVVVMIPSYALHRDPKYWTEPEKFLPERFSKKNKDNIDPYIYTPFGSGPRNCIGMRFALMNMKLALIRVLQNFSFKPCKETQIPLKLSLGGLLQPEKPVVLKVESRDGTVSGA
# Assay info: Inhibition of CYP3A4 at 3 uM
# Format: ADME
Property measured: inhibition at 3 µM

Mol smiles | Target | Property measured | Result
O=S(=O)(c1ccc2c(c1)CCNCC2)N1CCC(Oc2ccccc2Cl)CC1 | CYP3A4 (Homo sapiens) | inhibition at 3 µM | < 50%

----------
# Target: UniProtKB P28335
# Sequence (whole entry): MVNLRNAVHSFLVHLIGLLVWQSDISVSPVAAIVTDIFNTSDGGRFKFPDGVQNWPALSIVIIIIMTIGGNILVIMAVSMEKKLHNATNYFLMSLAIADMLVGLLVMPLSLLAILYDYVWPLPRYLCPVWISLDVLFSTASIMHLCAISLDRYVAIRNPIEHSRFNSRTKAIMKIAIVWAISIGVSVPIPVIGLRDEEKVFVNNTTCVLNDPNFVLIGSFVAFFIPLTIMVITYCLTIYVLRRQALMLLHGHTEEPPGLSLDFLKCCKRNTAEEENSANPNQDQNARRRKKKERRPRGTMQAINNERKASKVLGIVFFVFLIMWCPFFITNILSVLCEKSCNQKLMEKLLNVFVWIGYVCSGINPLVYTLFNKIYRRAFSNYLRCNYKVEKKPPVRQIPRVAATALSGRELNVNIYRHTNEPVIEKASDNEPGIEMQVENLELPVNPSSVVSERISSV
# Assay info: Agonist activity at human recombinant 5HT2C receptor expressed in CHOK1 cells assessed as calcium mobilization by FLIPR assay relative to serotonin
# Assay type: functional, cell-based
# Assay context: CHO-K1

Compound | Unit label | Emax
O=S(=O)(c1ccc2c(c1)CCNCC2)N1CCOCC1 | % | 55
CN(Cc1ccccc1)S(=O)(=O)c1ccc2c(c1)CCNCC2 | % | 40
O=S(=O)(c1ccc(F)cc1)c1ccc2c(c1)CCNCC2 | % | 47
O=S(=O)(c1ccc2c(c1)CCNCC2)N1CCC(Oc2ccccc2F)CC1 | % | 52
O=S(=O)(c1ccc2c(c1)CCNCC2)N1CC[C@H](Oc2ccccc2Cl)C1 | % | 47
CN(CC1COc2ccccc21)S(=O)(=O)c1ccc2c(c1)CCNCC2 (stereo not drawn) | % | 74
COc1cc(S(=O)(=O)N(C)Cc2ccccc2)c(OC)c2c1CCNCC2 | % | 50
O=S(=O)(c1ccc2c(c1)CCNCC2)c1ccccc1F | % | 70
O=S(=O)(NCC1CC1)c1ccc2c(c1)CCNCC2 | % | 47
O=S(=O)(c1ccc2c(c1)CCNCC2)N1CC(Oc2ccc(Cl)cc2)C1 | % | 66
O=S(=O)(c1ccc2c(c1)CCNCC2)N1CC(Oc2cccc(Cl)c2)C1 | % | 82
O=S(=O)(Nc1ccccc1Cl)c1ccc2c(c1)CCNCC2 | % | 38
O=S(=O)(Nc1ccccc1)c1ccc2c(c1)CCNCC2 | % | 38
O=S(=O)(c1ccc2c(c1)CCNCC2)N1CC(Oc2ccccc2Cl)C1 | % | 76
O=S(=O)(c1ccc2c(c1)CCNCC2)N1CC[C@@H](Oc2ccccc2Cl)C1 | % | 73
CCCNS(=O)(=O)c1ccc2c(c1)CCNCC2 | % | 59
O=S(=O)(c1ccc2c(c1)CCNCC2)N1CCCC1 | % | 86
O=S(=O)(NCc1ccccc1Cl)c1ccc2c(c1)CCNCC2 | % | 48
O=S(=O)(c1ccccc1)c1ccc2c(c1)CCNCC2 | % | 71
O=S(=O)(c1ccc2c(c1)CCNCC2)N1CCCCC1 | % | 66
CN(C)S(=O)(=O)c1ccc2c(c1)CCNCC2 | % | 74
O=S(=O)(c1ccc2c(c1)CCNCC2)N1CCC(Oc2cccc(Cl)c2)CC1 | % | 71
O=S(=O)(Nc1ccccc1F)c1ccc2c(c1)CCNCC2 | % | 47
O=S(=O)(c1ccc2c(c1)CCNCC2)N1CCC(Oc2ccccc2Cl)CC1 | % | 66
O=S(=O)(c1ccc2c(c1)CCNCC2)N1CCC(Oc2ccccc2)CC1 | % | 59
COc1cc(S(=O)(=O)N2CCC(Oc3ccccc3Cl)CC2)c(OC)c2c1CCNCC2 | % | 57
O=S(=O)(c1cccc(F)c1)c1ccc2c(c1)CCNCC2 | % | 81
CN(CC1CC1)S(=O)(=O)c1ccc2c(c1)CCNCC2 | % | 88
